Data provenance is the supplement of paper PMC10567573.

Recorded measurements of protein stability index, one per entry
B1: PI4K2A (parent)
chain: FVKDPQGRIIAVFKPKNEEPYGHL

Variants of: B1
Assay: protein stability index of a GFP-peptide fusion (GPS, HEK-293T) (PSI 1-6); higher = more stable;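 note: lentivirally expressed fusions sorted by FACS into six bins by GFP to DsRed ratio, PSI derived from sequencing read proportions per bin multiplied by bin number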
Settings: c terminus: a fixed tail appended
Hey, just send me the number, nothing else.

Here is how some variants turned out for protein stability index.
mutation_spec=Y21C quantity_measured="protein stability index" numeric_readout=2
mutation_spec=E19Q quantity_measured="protein stability index" numeric_readout=2.03

Identify protein stability index associated with the variant "P20G"
2.05
